test_target: T1, Cynomolgus IL-13Rα1 expressed in transfected Ba/F3 cells (Cynomolgus, UniProt A0A7N9D0M5 20-425)
T1 construct: Stably transfected murine Ba/F3 cells
T1 sequence: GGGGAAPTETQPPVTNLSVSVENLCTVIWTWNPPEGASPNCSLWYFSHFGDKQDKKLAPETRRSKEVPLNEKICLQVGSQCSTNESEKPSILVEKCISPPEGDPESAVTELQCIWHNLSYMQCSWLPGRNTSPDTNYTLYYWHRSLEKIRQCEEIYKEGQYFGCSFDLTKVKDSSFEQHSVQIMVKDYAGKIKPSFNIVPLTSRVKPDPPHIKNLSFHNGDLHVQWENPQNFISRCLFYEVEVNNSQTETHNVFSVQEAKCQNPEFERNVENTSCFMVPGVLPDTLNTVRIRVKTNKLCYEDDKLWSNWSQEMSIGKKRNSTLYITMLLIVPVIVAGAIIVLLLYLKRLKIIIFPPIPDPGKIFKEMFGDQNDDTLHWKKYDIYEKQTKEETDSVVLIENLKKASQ
protocol_details: FACS, transfected against parental Ba/F3 cells, 10 µg/ml
Measured Fold Increase in MFI in the presence of Cyno_IL-13Rα1 values are reported for all entries that follow.
// keep it numeric: no unit symbol after the value

# example entries with known answers
[
  {
    "binder": "HuMab LC5002-007 (antibody, human IgG1, V domains shown, Human IgG1 kappa from a HuMab mouse hybridoma; Only the variable domains are tied to this antibody; also called hu-MAB<h-IL-13R alpha>LC.5002-007 (DSM ACC2712)) VH: QVQLVQSGAEVKKPGSSVKVSCKVSGGTFSSYAFSWVRQAPGQGLEWMGRIIPILGRTNYAQKFQGRVTITADKSTSTAYMEVSSLRSEDTAVYYCAREGETLDYFYYGMDVWGQGTTVTVSS VL: EIVLTQSPGTLSLSPGERATLSCRASQSVSSSYLAWYQQKPGQAPRLLIYGASSRAIGIPDRFSGSGSGTDFTLTISRLEPEDFAVYYCQHYGSSLTFGGGTKVEIK",
    "measured_number": 14.9
  },
  {
    "binder": "HuMab LC5002-005 (antibody, V domains shown, Only the variable domains are tied to this antibody; also called hu-MAB<h-IL-13Ralpha>LC.5002-005 (DSM ACC2711)) VH: EVQVLDSGGGLVQPGGSLRLSCTASGFTFRLYTMSWVRQTPGRGLEWVSGISGSGLSTYFADSVKGRFTISRDNSKNTVYLQMNSLRAEDTAVYYCAKEGDWIYFDSWGQGTLVIVSS VL: DIQMTQSPSSLSASVGDRVTITCRASQGISSWLAWYQQKPEKAPKSLIYAASSLQSGVPSRFSGSGSGTDFTLTISSLQPEDFATYYCQQYNSHPPTFGQGTKLEIK",
    "measured_number": 86.7
  }
]

Which Fold Increase in MFI in the presence of Cyno_IL-13Rα1 value is on record for HuMab LC5002-003 (antibody, V domains shown, Human IgG1 kappa from a HuMab mouse hybridoma; Only the variable domains are tied to this antibody; also called LC50002-003; hu-MAB<h-IL-13Ralpha>LC.5002-003 (DSM ACC2710)) VH: EVQLLESGGDLIQPGGSLRLSCAASGFTFNIYAMNWVRQAPGKGLEWVSVISGRGITTYYADSVKGRFTISRDNSKNTLYLQMDSLRAEDTAVYYCAKGSSYWTDFDYWGQGTLVTVSS VL: DIQMTQSPSSLSASVGDRVTITCRASQGISSWLAWYQQKPEKAPKSLIYAASSLQSGVPSRFSGSGSGTDFTLTISSLQPEDFATYYCQQYNSYPWTFGQGTKVEIK ?
79

Which Fold Increase in MFI in the presence of Cyno_IL-13Rα1 value is on record for HuMab LC5002-002 (antibody, human IgG1, V domains shown, Human IgG1 kappa from a HuMab mouse hybridoma; Only the variable domains are tied to this antibody; also called hu-MAB<h-IL-13R alpha>LC.5002-002 (DSM ACC2709)) VH: EVQLLESGGGLVQPGGSLRLSCAASGFTFNIYAMNWVRQAPGKGLEWVSVISGRGITTYYADSVKGRFTISRDNSKNTLYLQMNSLRADDTAVYYCAKGSSSWTDFDYWGQGTLVTVSS VL: DIQMTQSPSSLSASVGDRVTITCRASQGISRWVAWYQQKPEKAPKSLIYAASSLQSGVPSRFSGSGSGTDFTLTISSLQPEDFATYYCQQYNSYPWTFGQGTKVEIK ?
79.8
